aptazyme ON/OFF ratio values, listed per item
B1: Pistol ribozyme (parent)
chain: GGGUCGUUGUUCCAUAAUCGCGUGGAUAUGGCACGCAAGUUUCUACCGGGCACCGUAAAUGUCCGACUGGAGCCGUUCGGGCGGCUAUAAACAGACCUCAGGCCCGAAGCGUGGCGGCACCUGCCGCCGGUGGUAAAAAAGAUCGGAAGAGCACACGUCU

variants of: B1; assay: aptazyme ON/OFF ratio, guanine; higher = stronger switching; co-transcriptional cleavage with and without guanine
MEASURED_ENDPOINT: aptazyme ON/OFF ratio

| MUTANT_NAME | MEASURED_ENDPOINT | ENDPOINT_VALUE |
| --- | --- | --- |
| U8G G9U U11G C12G | aptazyme ON/OFF ratio | 1.39 |
| U7G U8C U10G U11A C12A C13U | aptazyme ON/OFF ratio | 1.12 |
| U7G G9C U11A | aptazyme ON/OFF ratio | 2.57 |
| U8A U10A U11C C12G | aptazyme ON/OFF ratio | 1.08 |
| U7C U8C G9U U10C U11C C12U C13U | aptazyme ON/OFF ratio | 1.08 |
| U7G G9U U10G U11C C12G C13A | aptazyme ON/OFF ratio | 1.16 |
| U7C U8C U10A U11C C12U | aptazyme ON/OFF ratio | 1.05 |
| U7C G9C U10C U11A C12U C13U | aptazyme ON/OFF ratio | 1.03 |
| U7G U8A U10G U11C C12U C13U | aptazyme ON/OFF ratio | 1.1 |
| U7G G9A U10A U11C C12G C13A | aptazyme ON/OFF ratio | 1.1 |
| U7A U8C U10C U11A C12U | aptazyme ON/OFF ratio | 1.19 |
| U8A U11G C12A C13G | aptazyme ON/OFF ratio | 1.17 |
| U7C U10C U11A C12A | aptazyme ON/OFF ratio | 1.53 |
| U7C U8A G9U U11C C13U | aptazyme ON/OFF ratio | 1.03 |
| U8C G9U U11G C13U | aptazyme ON/OFF ratio | 1.23 |
| G9U U10A C12G | aptazyme ON/OFF ratio | 1.41 |
| U7C U8C U10G U11C C12G C13G | aptazyme ON/OFF ratio | 1.13 |
| U7G U8C G9A U11C C12G C13U | aptazyme ON/OFF ratio | 1.16 |
| U7C U10C C12A | aptazyme ON/OFF ratio | 1.26 |
| U7C G9U U11G C12U | aptazyme ON/OFF ratio | 1.47 |
| U7G U8A C12G C13U | aptazyme ON/OFF ratio | 1.46 |
| U7A U8A G9C U10G U11A C12A C13U | aptazyme ON/OFF ratio | 1.2 |
| U7A U8C G9A U11A | aptazyme ON/OFF ratio | 1.25 |
| U7C U8C U10A | aptazyme ON/OFF ratio | 1.35 |
| G9A U10G U11A C12U C13U | aptazyme ON/OFF ratio | 1.24 |
| U7C U8A G9A U10A U11C C13G | aptazyme ON/OFF ratio | 1.03 |
| U8C G9C U11C C13G | aptazyme ON/OFF ratio | 1.04 |
| U7A U8G G9U U10G U11G C13G | aptazyme ON/OFF ratio | 1.19 |
| U7A U10A C12U C13U | aptazyme ON/OFF ratio | 1.27 |
| U7G U8G U10G C13A | aptazyme ON/OFF ratio | 1.45 |
| U7A U8A U11G C13U | aptazyme ON/OFF ratio | 1.2 |
| U7C G9C U10C C13U | aptazyme ON/OFF ratio | 1.08 |
| U8C G9A U10G U11A C13G | aptazyme ON/OFF ratio | 1.04 |
| U7C U8A G9C U10G C12G C13A | aptazyme ON/OFF ratio | 1.32 |
| U8G G9C U10G U11G C12G C13G | aptazyme ON/OFF ratio | 1.1 |
| G9C U10C U11C C12A C13G | aptazyme ON/OFF ratio | 1.01 |
| U7G U8G G9A U10C U11G C12U C13A | aptazyme ON/OFF ratio | 1.27 |
| U7C U8A G9U U10C U11A C12A C13G | aptazyme ON/OFF ratio | 1.13 |
| U7G U10G U11C C12G C13U | aptazyme ON/OFF ratio | 1.35 |
| U7G U8G U11A C12U | aptazyme ON/OFF ratio | 1.38 |
| U7A U8G G9U U10G U11C C12A C13G | aptazyme ON/OFF ratio | 1.13 |
| U7C G9A U11C C12U C13A | aptazyme ON/OFF ratio | 1.17 |
| U8C G9U U10A C12G C13G | aptazyme ON/OFF ratio | 1.13 |
| U7C U8G G9U U10A U11G C12U | aptazyme ON/OFF ratio | 1.19 |
| U7G G9U U10C U11A C12A C13G | aptazyme ON/OFF ratio | 1.16 |
| U7C G9A U10G U11G C12G C13A | aptazyme ON/OFF ratio | 1.07 |
| U8C U10G C13A | aptazyme ON/OFF ratio | 1.27 |
| U7C G9C U11A C12A C13U | aptazyme ON/OFF ratio | 1.04 |
| U7A U8A G9C U10C U11A C12G C13A | aptazyme ON/OFF ratio | 1.05 |
| U7A U8C U10G U11A C12A C13U | aptazyme ON/OFF ratio | 1.32 |
| U8C G9C U10A U11A C12U | aptazyme ON/OFF ratio | 1.05 |
| U7C G9A U10A U11G C12G C13U | aptazyme ON/OFF ratio | 1.11 |
| U8C G9A U11A C12U | aptazyme ON/OFF ratio | 1.1 |
| U8G G9C U11G | aptazyme ON/OFF ratio | 1.14 |
| U7C G9A U10G U11A C12G C13U | aptazyme ON/OFF ratio | 1.25 |
| U7C U8A U11A C13A | aptazyme ON/OFF ratio | 1.15 |
| U7G U8A G9A U10A U11G C13G | aptazyme ON/OFF ratio | 1.07 |
| U7G U8C U10C U11G C12U C13A | aptazyme ON/OFF ratio | 1.29 |
| U7C U8A G9C U11G | aptazyme ON/OFF ratio | 1.13 |
| U7A G9C U10G C12A C13A | aptazyme ON/OFF ratio | 1.08 |
| U8C G9U U10C C12A C13U | aptazyme ON/OFF ratio | 1.19 |
| G9C U10C U11C C12G C13U | aptazyme ON/OFF ratio | 1.04 |
| G9C U10G U11C C12U C13U | aptazyme ON/OFF ratio | 1.24 |
| U7A U8A G9C U10C U11C C13A | aptazyme ON/OFF ratio | 1.03 |
| U8C C12U | aptazyme ON/OFF ratio | 1.49 |
| U7G U8A G9U U10G U11G C12A C13U | aptazyme ON/OFF ratio | 1.25 |
| U7G U8A U11A C12G C13G | aptazyme ON/OFF ratio | 1.18 |
| U7A U8A G9C U10G U11C C12A C13U | aptazyme ON/OFF ratio | 1.23 |
| U7G U8C G9C U10C C12G C13G | aptazyme ON/OFF ratio | 1.11 |
| U8C G9C C12G C13G | aptazyme ON/OFF ratio | 1.14 |
| U7C U10G C13U | aptazyme ON/OFF ratio | 1.39 |
| U7G U10G C13G | aptazyme ON/OFF ratio | 1.13 |
| U7G U8A U10A C12A | aptazyme ON/OFF ratio | 1.26 |
| U7G G9A U10C U11C C12A C13G | aptazyme ON/OFF ratio | 1.19 |
| U7G U8A G9A U11G C13U | aptazyme ON/OFF ratio | 1.21 |
| U8G G9U U10C U11C C12U | aptazyme ON/OFF ratio | 1.03 |
| G9U U10A U11G C12G | aptazyme ON/OFF ratio | 2.12 |
| U7A G9U U10C U11C C13A | aptazyme ON/OFF ratio | 1.01 |
| U7C U8A G9C U10A U11C C12A | aptazyme ON/OFF ratio | 1.28 |
| U8C G9U U11G C13A | aptazyme ON/OFF ratio | 1.24 |
| U7C U10A U11G C12U C13A | aptazyme ON/OFF ratio | 1.35 |
| U7G U8G G9A U10C U11A C12A C13G | aptazyme ON/OFF ratio | 1.15 |
| U7A U8A G9C U10A U11C C12U | aptazyme ON/OFF ratio | 1.05 |
| U7C U8C G9A U10G U11C C12A C13A | aptazyme ON/OFF ratio | 1.2 |
| U7C U8C G9C U10A U11A C12U C13G | aptazyme ON/OFF ratio | 1.2 |
| U7G U8A G9A U10C U11C C13U | aptazyme ON/OFF ratio | 1.03 |
| U7A U10C U11G | aptazyme ON/OFF ratio | 1.25 |
| U7A U8G G9U U10G U11C C12A | aptazyme ON/OFF ratio | 1.19 |
| U7C U8A G9A U10G U11G C12A C13G | aptazyme ON/OFF ratio | 1.14 |
| U7G U8A G9U U10A U11G C12U C13G | aptazyme ON/OFF ratio | 1.08 |
| U7C U8G G9C U10G U11A C12A | aptazyme ON/OFF ratio | 1.34 |

# credit: the RNAGym collection of RNA variant scans (doi:10.1021/acssynbio.7b00057)
